This collection of values is drawn from paper PMC5540273.

Listed next: entries and their corresponding %Inh.
# System: DDR2
# Assay Setup: concentration: 1 μM, replicates: in singlicate; n = 1;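 further: KINOMEscan kinase panel screen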
Give the number; % is assumed, so skip it.

| Compound | Target Desc | Output Unit | Observed Value |
| --- | --- | --- | --- |
| COc1cccc(-n2cnc3c(N)ncnc32)c1 [SKF-97416] | DDR2 | % | 21 |
| CC(C)(C)c1ccc(C(=O)Nc2cn3cc(-c4ccccc4)ccc3n2)cc1 | DDR2 | % | 28 |
| Fc1cccc(CSc2nnc(-c3ccc4c(c3)CCO4)o2)c1 | DDR2 | % | 16 |
| Cc1ccccc1COc1cc(-n2cnc3cc(Cl)ccc32)sc1C(N)=O [GW813349] | DDR2 | % | 1 |
| O=C(Nc1n[nH]c2nc(-c3ccccc3)c(Cl)cc12)C1CC1 [SB-734909] | DDR2 | % | 18 |
| Nc1nccc2scc(-c3ccc4c(c3)CCN4C(=O)Cc3ccccc3)c12 [GSK2576924] | DDR2 | % | 3 |

Proceeding to the next compound to report its %Inh.
Query: Kindly state the measured %Inh obtained for CN1C(=O)C(Nc2ccccc2)=C(c2ccccc2)C1=O [SB-300079] with DDR2.
Reply: 37

====

# System: AXL
# Assay Setup: concentration: 1 μM, replicates: in singlicate; n = 1
Label Criterion met when %Inh is strictly below 2%; otherwise label Criterion not met.

Take a look at these entries with their results.
| Compound | Target Desc | Group |
| --- | --- | --- |
| CCC(=O)c1c(-c2ccccc2)c2cc(Cl)ccc2c(=O)n1Cc1cc(S(C)(=O)=O)n(CCC(C)(C)O)n1 | AXL | Criterion not met |
| Nc1n[nH]c2ncc(-c3ccccc3)cc12 [SB-517081] | AXL | Criterion met |
| Cc1nnc(-c2ccc(C)c(-c3ccc(C(=O)O)cc3)c2)o1 [GW608005] | AXL | Criterion met |
| FC(F)(F)c1ccc(-c2ncn(CCCN3CCOCC3)c2-c2ccncc2)cc1 [SB-217780] | AXL | Criterion not met |
| C[C@@H]1CC[C@H](C(=O)NC2CCCCC2)CN1c1cc(-c2ccc3c(N)n[nH]c3c2)nc(N)n1 [GSK2291363] | AXL | Criterion not met |
| COc1ccc(-n2cnc3c(N)ncnc32)cc1 [SKF-97236] | AXL | Criterion not met |

Query: A record lists Nc1nc(N)c2nc(-c3ccccc3)[nH]c2n1 [SKF-12778] . Is its %Inh below 2%?
Reply: Criterion not met

Query: A record lists COc1ccc(-c2cc3c(C)nc(N)nc3n([C@H]3CC[C@H](OCCO)CC3)c2=O)cn1 . Is its %Inh below 2%?
Reply: Criterion met

====

Listed next: entries and their corresponding %Inh.
# Test system: TSSK1B
# Assay Setup: concentration: 1 μM, replicates: in singlicate; n = 1
Don't forget the unit after the value.

| Smiles Input | %Inh |
| --- | --- |
| Cc1cccc(-c2nc(Nc3ccc4c(cnn4C)c3)c3ccccc3n2)n1 | 3% |
| COc1ccc(-c2cc3c(C)nc(N)nc3n([C@H]3CC[C@H](OCCO)CC3)c2=O)cn1 | 2% |
| Fc1cccc(CSc2nnc(-c3ccc4c(c3)CCO4)o2)c1 | 0% |
| O=c1cc(N2CCOCC2)nc2n(Cc3ccc(F)c(Cl)c3)ccn12 | 0% |
| Cc1nc(N(C)[C@H]2CN(C(=O)CC#N)CC[C@H]2C)c2cc[nH]c2n1 | 0% |
| Cc1ccc(-c2ccc3c(ccc4sc5c(c43)NC[C@@H](C)N=C5N(C)C)n2)cn1 | 0% |
| Cc1ccccc1COc1cc(-n2cnc3cc(Cl)ccc32)sc1C(N)=O | 3% |
| O=C(Nc1n[nH]c2nc(-c3ccccc3)c(Br)cc12)C1CC1 | 25% |

Proceeding to the next compound to report its %Inh.
Query: Kindly state the measured %Inh obtained for COc1cccc(C2=C(N(C)c3ccccc3)C(=O)NC2=O)c1 with TSSK1B.
Reply: 0%
